src = ChEMBL document CHEMBL4831504

Biological target: Tyrosine-protein phosphatase non-receptor type 1 (Homo sapiens)
Assay: Inhibition of recombinant PTP1B catalytic domain (unknown origin) assessed as reduction in pNP formation using pNPP as substrate at 20 ug/ml by absorbance based analysis relative to control
Conditions: dose 20.0 µg/ml
endpoint-name: inhibition

>>> measurement("CC(C)=CCc1c(O)cc(-c2cc3ccc(O)cc3o2)cc1O")
"90.6%"
>>> measurement("CC(C)=CCC/C(C)=C/Cc1c(O)cc(O)c2c(=O)c(CC=C(C)C)c(-c3ccc(O)cc3O)oc12")
"95.8%"
>>> measurement("CC(C)=CCc1cc(-c2oc3c(CC=C(C)C)c(O)cc(O)c3c(=O)c2CC=C(C)C)c(O)cc1O")
"93.3%"
>>> measurement("CC(C)=CCc1c(O)ccc(C(=O)Oc2cc(-c3cc4ccc(O)cc4o3)cc(O)c2-c2cc(C)cc(-c3ccc(O)cc3O)c2)c1O")
"99.2%"
>>> measurement("CC(C)=CCc1c(-c2ccc(O)cc2O)oc2cc3c(c(O)c2c1=O)C=CC(C)(C)O3")
"70.9%"
>>> measurement("CC(C)=C[C@H]1Oc2cc(O)ccc2-c2oc3cc(O)ccc3c(=O)c21")
"45.4%"
>>> measurement("CC(C)=CCc1cc(-c2oc3cc(O)cc(O)c3c(=O)c2CC=C(C)C)c(O)cc1O")
"77.6%"
>>> measurement("CC(C)=CCc1c(-c2ccc(O)cc2O)oc2c3c(cc(O)c2c1=O)OC(C)(C)C=C3")
"71.5%"
>>> measurement("CC1(C)Oc2cc3oc(-c4cc(O)cc(O)c4)cc3cc2CC1O (stereo not drawn) [(+/-)-MORACIN P]")
"39.1%"
>>> measurement("CC(C)=CCc1c(O)ccc(C(=O)Oc2cc(/C=C/c3ccc(O)cc3O)cc(O)c2-c2cc(C)cc(-c3ccc(O)cc3O)c2)c1O")
"97%"
